Each recorded value in this set is attributed to paper PMC2566858.

Biological target: T1, rGyr_fl Y851F (full-length reverse gyrase) (Thermotoga maritima, UniProt O51934 1-1104, Y851F)
T1 sequence: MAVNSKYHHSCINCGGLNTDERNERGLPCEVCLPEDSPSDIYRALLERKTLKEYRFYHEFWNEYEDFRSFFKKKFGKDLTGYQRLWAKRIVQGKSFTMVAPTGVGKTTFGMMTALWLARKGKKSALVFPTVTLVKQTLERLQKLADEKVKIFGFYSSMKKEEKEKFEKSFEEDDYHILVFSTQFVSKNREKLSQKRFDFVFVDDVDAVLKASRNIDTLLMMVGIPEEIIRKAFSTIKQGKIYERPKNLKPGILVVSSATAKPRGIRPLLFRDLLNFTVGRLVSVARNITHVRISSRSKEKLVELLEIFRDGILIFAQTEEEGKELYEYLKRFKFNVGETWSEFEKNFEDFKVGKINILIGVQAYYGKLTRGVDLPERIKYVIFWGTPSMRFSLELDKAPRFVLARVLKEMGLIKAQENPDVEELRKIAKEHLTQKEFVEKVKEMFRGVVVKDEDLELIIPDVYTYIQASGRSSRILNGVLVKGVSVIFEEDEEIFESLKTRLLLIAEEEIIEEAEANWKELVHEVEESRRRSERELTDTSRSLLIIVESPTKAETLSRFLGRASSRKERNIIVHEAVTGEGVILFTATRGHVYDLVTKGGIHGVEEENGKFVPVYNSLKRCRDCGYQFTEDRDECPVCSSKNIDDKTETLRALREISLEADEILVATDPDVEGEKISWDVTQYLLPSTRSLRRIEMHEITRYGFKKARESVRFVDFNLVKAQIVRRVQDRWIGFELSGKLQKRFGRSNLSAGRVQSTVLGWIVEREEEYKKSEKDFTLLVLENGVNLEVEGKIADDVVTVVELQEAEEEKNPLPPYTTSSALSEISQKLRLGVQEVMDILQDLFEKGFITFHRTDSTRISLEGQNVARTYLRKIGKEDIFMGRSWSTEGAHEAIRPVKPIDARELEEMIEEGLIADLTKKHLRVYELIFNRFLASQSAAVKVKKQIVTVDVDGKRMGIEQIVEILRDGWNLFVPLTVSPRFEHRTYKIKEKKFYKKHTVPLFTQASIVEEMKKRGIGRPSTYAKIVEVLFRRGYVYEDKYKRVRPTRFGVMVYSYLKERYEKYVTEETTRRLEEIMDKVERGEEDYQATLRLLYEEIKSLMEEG
Experiment: fluorescence anisotropy
readoutKind: pKd
The meaning of pKd here: minus log10 of the concentration in molar units.

Query: May I ask what pKd has been recorded for 60-base ssDNA (ssDNA) DNA: AAGCCAAGCTTCTAGAGTCAGCCCGTGATATTCATTACTTCTTATCCTAGGATCCCCGTT ?
Response: 7.42
